- assaySystem: T1, Bi-SEQ ID NO: 4, *H**Glu(Bi-PEG)*…laTCSYEEA*NH2 (disulfide 6-11)
- T1 construct: Synthetic peptide; 12-27 of mature prothrombin with Gla at 20
- T1 peptide: {Glu(Bi-PEG)(3)}-NLERECVE[Gla]TCSYEEA-NH2
- measurementNotes: ECL assay (Elecsys 2010), ruthenylated antibody and biotinylated peptide, streptavidin beads
Bridge positions count the residues as written; N and C are the ends. Square brackets hold non-standard residues; d marks the D form. Primed or numbered codes have the meaning given here. Glu(Bi-PEG)(3) = N-terminal added Glu biotin-linker residue; Gla = N[C@@H](CC(C(=O)O)C(=O)O)C(=O)O
readoutLabel: reactivity (signal normalized to Bi-SEQ ID NO:1) (%)
Numbers only, in %.

Example binders with recorded reactivity (signal normalized to Bi-SEQ ID NO:1):
binder="monoclonal anti-PIVKA-II antibody 7A10 (antibody, V domains shown, Recombinant rabbit IgG from B-cell cloning, expressed in HEK cells) VH: QSLEESGGRLVTPGTPLTLTCTVSGIDLSTYAMGWVRQAPGKGLEYIGIIRSSGRTYYASWAKGRFTVSKTSSTTVDLSMTSPTTEDTATYYCYRNVSLWGQGTLVSVSS VL: DVVMTQTPSSVEAAVGGTVTIKCQASQSIGNNLAWYQQKPGQRPNLLIYSASTLASGVPSRFRGSGSGTEFTLTISGVQCDDAATYYCQSYAGVSESVFWYSFGGGTGVVVK" experimentalresult=68
binder="monoclonal anti-PIVKA-II antibody 4E8 (antibody, V domains shown, Recombinant rabbit IgG from B-cell cloning, expressed in HEK cells) VH: QSVEESGGRLVTPGTPLTLTCTVSGFDLSRYAVGWVRQAPGKGLEYIGLITSDGRTYYANWAKGRFTVSKTSSTTVDLKMTSPTTEDTATYYCYRNVSLWGQGTLVSVSS VL: DVVMTQTPASVEAAVGGTVTIKCQASQSIGSNLAWYQQKSGQPPKLLIYSASTLAPGVSSRFSGSGSGTEFTLTFTGVQCGDAATYFCQSYAGVSANIFYYSFGGGTEVVVM" experimentalresult=76

Entry under review: monoclonal anti-PIVKA-II antibody 13H7 (antibody, V domains shown, Recombinant rabbit IgG from B-cell cloning, expressed in HEK cells) VH: QSVEESGGRLVTPETPLTLTCTVSGFDLSRYAMGWVRQAPGKGLEYIGLIVSDGRTYYASWAKGRFTISKTSSTTVDLKMASPTTEDTATYYCYRNVSLWGQGTLVSVSE VL: DVVMTQTPSSVEAAVGGTVTIKCQASQSIGSNLAWYQQKPGQPPKLLIYSASTLASGVSSRFKGSGSGTEFTLTISDLECADAATYYCQSYAGISANIFYYAFGGGTEVVVM . Reported reactivity (signal normalized to Bi-SEQ ID NO:1)?
68
